test system: Escherichia coli TOP10; assay: shrunken log2 fold change of peptide-encoding DNA abundance (4.5 h post-induction vs induction); higher = less antimicrobial activity (less host growth inhibition); settings: time post-induction: 4.5 h; library: site-saturation at positions 5, 18, 19, 20
Outcome: class 1 for shrunken log2 fold change of at least 0.03; class 0 for anything lower.

INSERT INTO assay_data (sequence_string, category_label) VALUES
  ('RRIRMRPPRLPRPRPRPEKCPRP', 'class 0');

# bool: shrunken log2 fold change of RRIRTRPPRLPRPRPRPSHKPRP >= 0.03
class 0

Does RRIRHRPPRLPRPRPRPSVPPRP have a reported shrunken log2 fold change of at least 0.03?
class 0

Say whether RRIRVRPPRLPRPRPRPKFRPRP shows shrunken log2 fold change of 0.03 or more.
class 1

Is it the case that RRIRVRPPRLPRPRPRPNFCPRP has shrunken log2 fold change reaching or exceeding 0.03?
class 0

Say whether RRIRMRPPRLPRPRPRPVQWPRP shows shrunken log2 fold change of 0.03 or more.
class 1

shrunken log2 fold change >= 0.03 for RRIRQRPPRLPRPRPRPHWIPRP ?
class 0

# check: shrunken log2 fold change of RRIRDRPPRLPRPRPRPREYPRP is greater than or equal to 0.03
class 1

I'd appreciate it if you could say whether RRIRQRPPRLPRPRPRPLHTPRP has shrunken log2 fold change at least equal to 0.03.
class 1

Does shrunken log2 fold change meet or surpass 0.03 for RRIRSRPPRLPRPRPRPIQCPRP ?
class 0

Decide: is the reported value of shrunken log2 fold change for RRIRMRPPRLPRPRPRPMWQPRP equal to or greater than 0.03?
class 1

Item RRIRLRPPRLPRPRPRPPIWPRP with shrunken log2 fold change of 0.03 or above?
class 0

Exam item: decide whether the reported shrunken log2 fold change for RRIRCRPPRLPRPRPRPNCSPRP is at least 0.03.
class 0

Check the entry RRIRYRPPRLPRPRPRPYFTPRP : does shrunken log2 fold change equal or exceed 0.03?
class 0

Check this sequence for shrunken log2 fold change at or above 0.03: RRIRERPPRLPRPRPRPAWRPRP
class 1

Identify whether the reported shrunken log2 fold change of the following sequence is 0.03 or greater: RRIRFRPPRLPRPRPRPDPLPRP
class 1

---

test system: Escherichia coli TOP10; assay: shrunken log2 fold change of peptide-encoding DNA abundance (4.5 h post-induction vs induction); higher = less antimicrobial activity (less host growth inhibition); conditions: time post-induction: 4.5 h; library: site-saturation at positions 5, 18, 19, 20
PROPERTY: shrunken log2 fold change

Completed entries (count: 2):
INSERT INTO measurements (sequence_string, reported_value) VALUES
  ('RRIRCRPPRLPRPRPRPRGVPRP', 0.69),
  ('RRIRGRPPRLPRPRPRPPLAPRP', 1.35);

Sample RRIRARPPRLPRPRPRPIQVPRP — what was its shrunken log2 fold change?
-0.215

Param item = RRIRGRPPRLPRPRPRPALYPRP ; retrieve measured shrunken log2 fold change.
0.363

---

tested on: Escherichia coli TOP10; assay: shrunken log2 fold change of peptide-encoding DNA abundance (4.5 h post-induction vs induction); higher = less antimicrobial activity (less host growth inhibition); details: time post-induction: 4.5 h; library: site-saturation at positions 5, 18, 19, 20
PROPERTY: shrunken log2 fold change
Enter the number alone.

INSERT INTO measurements (sequence_string, reported_value) VALUES
  ('RRIRCRPPRLPRPRPRPSKWPRP', -0.0391);

Please look up its shrunken log2 fold change: RRIRIRPPRLPRPRPRPMGFPRP
0.0523

Using the record for RRIRTRPPRLPRPRPRPKQIPRP , report its shrunken log2 fold change.
0.0644

State the recorded shrunken log2 fold change for this entry: RRIRTRPPRLPRPRPRPWREPRP
-0.00743

---

Quick reference: shrunken log2 fold change of the listed items.
test system: Escherichia coli TOP10; experiment: shrunken log2 fold change of peptide-encoding DNA abundance (4.5 h post-induction vs induction); higher = less antimicrobial activity (less host growth inhibition); details: time post-induction: 4.5 h; library: site-saturation at positions 5, 18, 19, 20

A selection of reference data follows.
INSERT INTO assay_data (sequence_string, measured_on, reported_value) VALUES
  ('RRIRARPPRLPRPRPRPETVPRP', 'Escherichia coli TOP10', 0.312),
  ('RRIRWRPPRLPRPRPRPKSKPRP', 'Escherichia coli TOP10', 0.194),
  ('RRIRMRPPRLPRPRPRPVDYPRP', 'Escherichia coli TOP10', -0.0574);

Recorded shrunken log2 fold change for RRIRMRPPRLPRPRPRPCWYPRP with Escherichia coli TOP10, please?
0.092

---

tested on: Escherichia coli TOP10; experiment: shrunken log2 fold change of peptide-encoding DNA abundance (4.5 h post-induction vs induction); higher = less antimicrobial activity (less host growth inhibition); conditions: time post-induction: 4.5 h; library: site-saturation at positions 5, 18, 19, 20
# label = 1.0 if shrunken log2 fold change >= -0.2 else 0.0

INSERT INTO measurements (sequence_string, category_label) VALUES
  ('RRIRYRPPRLPRPRPRPKFTPRP', 0.0);

Reported shrunken log2 fold change at or above -0.2? RRIRVRPPRLPRPRPRPEMTPRP
1.0

Does the reported shrunken log2 fold change for RRIRHRPPRLPRPRPRPYQIPRP fall at or above the -0.2 mark?
0.0

---

system: Escherichia coli TOP10; assay: shrunken log2 fold change of peptide-encoding DNA abundance (4.5 h post-induction vs induction); higher = less antimicrobial activity (less host growth inhibition); settings: time post-induction: 4.5 h; library: site-saturation at positions 5, 18, 19, 20
As shown below, each of these sequences has a reported shrunken log2 fold change value.
Write the number on its own, no unit after it.

Check out these entries, answers already filled in.
INSERT INTO results (sequence_string, reported_value) VALUES
  ('RRIRQRPPRLPRPRPRPDKPPRP', -0.214),
  ('RRIRVRPPRLPRPRPRPVMEPRP', -0.186),
  ('RRIRERPPRLPRPRPRPHLLPRP', 0.0196),
  ('RRIRHRPPRLPRPRPRPLYLPRP', -0.4),
  ('RRIRDRPPRLPRPRPRPDVSPRP', -0.00965);

Entry RRIRDRPPRLPRPRPRPIFWPRP has what shrunken log2 fold change?
0.0145

Quick check: shrunken log2 fold change of RRIRPRPPRLPRPRPRPTTFPRP ?
-0.173

# lookup: shrunken log2 fold change of RRIRFRPPRLPRPRPRPVEGPRP
-0.0615

Can you share its shrunken log2 fold change? I mean this sequence: RRIRLRPPRLPRPRPRPSVLPRP
-0.779

---

test system: Escherichia coli TOP10; assay: shrunken log2 fold change of peptide-encoding DNA abundance (4.5 h post-induction vs induction); higher = less antimicrobial activity (less host growth inhibition); settings: time post-induction: 4.5 h; library: site-saturation at positions 5, 18, 19, 20
Let's look at some sequences and their measured shrunken log2 fold change.
API doc: respond with a numeric literal and nothing else, no unit.

Observe how each entry below is paired with its result.
INSERT INTO assay_data (sequence_string, property, reported_value) VALUES
  ('RRIRNRPPRLPRPRPRPAVYPRP', 'shrunken log2 fold change', -0.0398),
  ('RRIRDRPPRLPRPRPRPSNAPRP', 'shrunken log2 fold change', -0.184),
  ('RRIRIRPPRLPRPRPRPYLRPRP', 'shrunken log2 fold change', -0.086);

Please tell me: shrunken log2 fold change of RRIRPRPPRLPRPRPRPWSAPRP , system Escherichia coli TOP10?
-0.00633

Provide value of shrunken log2 fold change for this record tested with Escherichia coli TOP10: RRIRHRPPRLPRPRPRPNMCPRP
-0.126

For Escherichia coli TOP10, provide shrunken log2 fold change of RRIRARPPRLPRPRPRPTKNPRP please.
0.429

Identify the measured shrunken log2 fold change of RRIRPRPPRLPRPRPRPRDNPRP for Escherichia coli TOP10.
-0.104

Quick check: shrunken log2 fold change on Escherichia coli TOP10, item RRIRYRPPRLPRPRPRPCAFPRP ?
-0.353

Find shrunken log2 fold change (Escherichia coli TOP10) for the entry RRIRHRPPRLPRPRPRPRVCPRP
0.318

Missing value: shrunken log2 fold change, Escherichia coli TOP10, entry RRIRHRPPRLPRPRPRPMHDPRP . Fill in?
-0.0353

API: value(readout= shrunken log2 fold change, system= Escherichia coli TOP10, query= RRIRLRPPRLPRPRPRPLYDPRP )
-0.924

Record lookup: for Escherichia coli TOP10, what shrunken log2 fold change belongs to RRIRSRPPRLPRPRPRPPLFPRP ?
0.257

Recall the recorded shrunken log2 fold change for RRIRKRPPRLPRPRPRPLRSPRP with Escherichia coli TOP10 and state it.
0.962

Field: shrunken log2 fold change (Escherichia coli TOP10). Entry: RRIRRRPPRLPRPRPRPGQCPRP
0.22

Observed shrunken log2 fold change on Escherichia coli TOP10 for RRIRMRPPRLPRPRPRPPNAPRP , please.
1.11

Reported shrunken log2 fold change for Escherichia coli TOP10, given RRIRQRPPRLPRPRPRPRHIPRP ?
-0.319

What measured shrunken log2 fold change is associated with RRIRHRPPRLPRPRPRPHTHPRP on Escherichia coli TOP10?
-0.725

Requested read-out shrunken log2 fold change, target or system Escherichia coli TOP10, entry RRIRPRPPRLPRPRPRPAHQPRP
0.387

Query shrunken log2 fold change on Escherichia coli TOP10 for RRIRSRPPRLPRPRPRPPGTPRP
0.396

Record lookup: for Escherichia coli TOP10, what shrunken log2 fold change belongs to RRIRRRPPRLPRPRPRPMPAPRP ?
0.203

Tell me reported shrunken log2 fold change for RRIRTRPPRLPRPRPRPTAYPRP , tested with Escherichia coli TOP10.
-0.0821

Query the reported shrunken log2 fold change for Escherichia coli TOP10; item: RRIRWRPPRLPRPRPRPVICPRP
-0.151

GET /values?readout=shrunken log2 fold change&system=Escherichia coli TOP10&item= RRIRVRPPRLPRPRPRPGFDPRP
0.0552

API: value(readout=shrunken log2 fold change, system=Escherichia coli TOP10) for record RRIRKRPPRLPRPRPRPCTPPRP;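 also: peptides expressed intracellularly from a pBAD plasmid library in pooled LB shake-flask culture, induced with 0.3% L-arabinose, DNA abundance read by NGS, three biological replicates, DESeq2 with apeglm shrinkage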
0.192
